Biological target: T1, purified human activated C1s protein, two-chain form (Homo sapiens, UniProt P09871 16-688)
T1 construct: Also used here for C1s acting in human serum assays; also called human C1s; active C1s
T1 sequence: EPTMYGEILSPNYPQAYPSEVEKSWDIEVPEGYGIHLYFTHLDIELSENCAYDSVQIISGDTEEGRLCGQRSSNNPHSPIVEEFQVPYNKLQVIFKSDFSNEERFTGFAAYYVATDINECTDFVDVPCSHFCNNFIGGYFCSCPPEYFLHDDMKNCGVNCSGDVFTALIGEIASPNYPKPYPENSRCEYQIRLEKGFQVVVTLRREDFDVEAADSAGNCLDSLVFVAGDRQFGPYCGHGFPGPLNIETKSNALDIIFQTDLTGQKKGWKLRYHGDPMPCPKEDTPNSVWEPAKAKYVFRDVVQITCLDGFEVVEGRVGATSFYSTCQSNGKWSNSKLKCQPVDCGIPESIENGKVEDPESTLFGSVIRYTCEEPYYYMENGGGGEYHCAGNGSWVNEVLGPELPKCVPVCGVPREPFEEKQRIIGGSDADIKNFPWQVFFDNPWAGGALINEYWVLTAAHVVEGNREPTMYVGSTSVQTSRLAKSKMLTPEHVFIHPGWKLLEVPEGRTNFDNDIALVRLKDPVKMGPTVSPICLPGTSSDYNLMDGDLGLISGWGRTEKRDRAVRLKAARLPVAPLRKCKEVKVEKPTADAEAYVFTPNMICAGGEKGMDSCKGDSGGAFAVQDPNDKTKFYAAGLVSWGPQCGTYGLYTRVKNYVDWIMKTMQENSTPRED
Assay: kinetic binding measurement, method not stated; Table 9, activated C1s
property.measured: kon (M⁻¹ s⁻¹)
// units = M⁻¹ s⁻¹; emit number, no label

A selection of reference data follows.
binder	kon (M⁻¹ s⁻¹)
VH1/Vk1 (antibody, V domains shown, member of group m7; also called VH1/Vκ1; VH variant 1 + Vk variant 1) VH: EVMLVESGGGLVKPGGSLRLSCAASGFTFSNYAMSWVRQAPGKGLEWVATISSGGSHTYYLDSVKGRFTISRDNSKDTLYLQMSSLRAEDTALYYCARLFTGYAMDYWGQGTSVTVSS VL: QIVLTQSPAILSLSPGERATMSCTASSSVSSSYLHWYQQKPGKAPKLWIYSTSNLASGVPSRFSGSGSGTFYTLTISSLQAEDFATYYCHQYYRLPPITFGQGTKLEIK	973000
VH2/Vk1 (antibody, V domains shown, member of group m7; also called VH2/Vκ1; VH variant 2 + Vk variant 1) VH: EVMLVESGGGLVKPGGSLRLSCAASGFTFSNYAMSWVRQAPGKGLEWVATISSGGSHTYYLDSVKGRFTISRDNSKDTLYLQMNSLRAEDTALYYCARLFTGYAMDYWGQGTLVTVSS VL: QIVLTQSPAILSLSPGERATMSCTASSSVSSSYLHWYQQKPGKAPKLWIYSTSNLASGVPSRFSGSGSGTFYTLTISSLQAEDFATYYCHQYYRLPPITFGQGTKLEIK	1.07e+06

We next turn to a different binder, shown below.
input: Please look up its kon: VH2/Vk3 (antibody, V domains shown, member of group m7; also called VH2/Vκ3; VH variant 2 + Vk variant 3) VH: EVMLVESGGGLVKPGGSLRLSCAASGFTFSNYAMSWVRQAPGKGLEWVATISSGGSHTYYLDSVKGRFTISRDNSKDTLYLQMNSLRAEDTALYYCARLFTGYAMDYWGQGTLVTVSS VL: QIVLTQSPATLSLSPGERATLSCTASSSVSSSYLHWYQQKPGKAPKLWIYSTSNLASGVPSRFSGSGSGTDYTLTISSLQPEDFATYYCHQYYRLPPITFGQGTKLEIK
output: 948000
